Sourced from patent US20220089776A1

What pKd was measured for each of the following?
tgt: T1, human blood protein factor XII (FXII) (human, UniProt P00748 20-615)
T1 construct: mature; Single-chain zymogen as it circulates in plasma; also called human FXII; plasma-derived FXII
T1 sequence (looked up): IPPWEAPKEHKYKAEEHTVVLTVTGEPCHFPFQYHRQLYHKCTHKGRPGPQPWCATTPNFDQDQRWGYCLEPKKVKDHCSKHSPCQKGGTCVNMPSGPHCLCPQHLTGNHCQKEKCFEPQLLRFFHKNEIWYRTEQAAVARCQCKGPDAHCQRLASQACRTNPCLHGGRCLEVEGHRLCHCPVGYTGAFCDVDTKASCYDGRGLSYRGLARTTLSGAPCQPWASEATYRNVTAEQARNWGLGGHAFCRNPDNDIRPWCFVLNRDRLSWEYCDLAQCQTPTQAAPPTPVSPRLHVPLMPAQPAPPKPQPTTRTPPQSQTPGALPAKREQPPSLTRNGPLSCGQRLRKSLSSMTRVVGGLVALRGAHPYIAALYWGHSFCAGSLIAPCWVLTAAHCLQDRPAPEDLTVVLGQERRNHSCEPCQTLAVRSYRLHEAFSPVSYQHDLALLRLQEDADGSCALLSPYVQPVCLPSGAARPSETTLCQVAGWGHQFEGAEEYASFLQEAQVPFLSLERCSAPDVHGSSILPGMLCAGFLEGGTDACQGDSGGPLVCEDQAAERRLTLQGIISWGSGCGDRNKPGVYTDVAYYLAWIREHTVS
method summary: BLI (Octet RED96), antibody on anti-human Fc biosensors, antigen in solution, 1:1 fit
Numbers only, as −log10 of the molar value.

[in] Assign pKd to the following record: humanized 5C12 antibody HC3 + LC2 (PP13900) (antibody, human IgG4 S228P, kappa, V domains shown, Human IgG4 (S241P hinge modified), expressed in HEK293; also called H7882 + L7881) VH: DVQLQESGPGLVKPSETLSLTCTVSGYSITSGYSWHWIRQPPGKGLEWIGYIQYSGNTNSNPSLKSRVTISRDTSKNQFSLRLSSVTAADTAVYYCARWGSFDYWGQGTMVTVSS VL: EIVLTQSPATLSLSPGERATLSCRASSSVNYLHWYQQKPGQAPKRWIYDTSKLATGIPARFSGSGSGTDYTLTISSLEPEDFAVYYCQQWSGNPPTFGGGTKVEIKR
[out] 9.49

[in] Assign pKd to the following record: humanized 5C12 antibody HC2 + LC3 (PP13898) (antibody, human IgG4 S228P, kappa, V domains shown, Human IgG4 (S241P hinge modified), expressed in HEK293; also called H7881 + L7882) VH: DVQLQESGPGLVKPSQTLSLTCTVTGYSITSGYSWHWIRQHPGKGLEWMGYIQYSGNTNSNPSLKSRVTISRDTSKNQFSLKLSSVTAADTAVYYCARWGSFDYWGQGTLVTVSS VL: DIVLTQTPATLSLSPGERATLSCRASSSVNYLHWYQQKPGQAPKRLIYDTSKLATGIPARFSGSGSGTDYTLTISSLEPEDFAVYYCQQWSGNPPTFGQGTRLEIKR
[out] 9.51

Query binder follows.
[in] Assign pKd to the following record: humanized 5C12 antibody HC1 + LC1 (PP13893) (antibody, human IgG4 S228P, kappa, V domains shown, Human IgG4 (S241P hinge modified), expressed in HEK293; also called AB054; h5C12) VH: QVQLQESGPGLVKPSQTLSLTCTVSGYSITSGYSWHWIRQHPGKGLEWIGYIQYSGNTNSNPSLKSRVTISRDTSKNQFSLKLSSVTAADTAVYYCARWGSFDYWGQGTLVTVSS VL: EIVLTQSPATLSLSPGERATLSCRASSSVNYLHWYQQKPGQAPRRLIYDTSKLATGIPARFSGSGSGTDYTLTISSLEPEDFAVYYCQQWSGNPPTFGGGTKVEIKR
[out] 9.52
